# test_summary: Selectivity ratio of IC50 for inhibition of 20S proteasome beta 5c subunit (unknown origin) to IC50 for inhibition of 20S proteasome subunit beta-5i
attribute_measured: Ratio IC50

# example entries with known answers
CC(C)(C)NC(=O)CC[C@H](NC(=O)CCNC(=O)CCl)C(=O)N[C@@H](Cc1ccc2ccccc2c1)C(=O)NCc1cccc2ccccc12 535
CC(C)c1ccc(CNC(=O)[C@H](Cc2ccccc2)NC(=O)[C@H](CCC(=O)NC(C)(C)C)NC(=O)CCNC(=O)CCl)cc1 12
Cc1ccc(CNC(=O)[C@H](Cc2ccccc2)NC(=O)[C@H](CCC(=O)N2CCCC2)NC(=O)[C@H](CNC(=O)CCl)NC(=O)CN2CCOCC2)cc1 10
COc1cccc(CNC(=O)[C@H](Cc2ccccc2)NC(=O)[C@H](CCC(=O)NC(C)(C)C)NC(=O)CCNC(=O)CCl)c1 11
Cc1ccc(CNC(=O)[C@H](Cc2ccccc2)NC(=O)[C@H](CCC(=O)NC(C)(C)C)NC(=O)CCNC(=O)/C(C#N)=C/c2ccc(Cl)cc2)cc1 22
Cc1ccc(CNC(=O)[C@H](Cc2ccccc2F)NC(=O)[C@H](CCC(=O)NC(C)(C)C)NC(=O)CCNC(=O)CCl)cc1 4

Please turn your attention to the following entry.
Data request, read-out Ratio IC50, for COc1ccc(/C=C(\C#N)C(=O)NCCC(=O)N[C@@H](CCC(=O)NC(C)(C)C)C(=O)N[C@@H](Cc2ccccc2)C(=O)NCc2ccc(C)cc2)cc1 2
